Run Conditions: in ethanol, 293.15 K
Measured Property: solubility (mole fraction)
Numbers only.

Q: Read off the recorded solubility (mole fraction) for Cl.N=C(N)N
Result: 0.108

====

Run Conditions: in 2-propoxyethanol, 288.15 K
Measured Property: solubility (mole fraction)
One number for each entry.

Q: Read off the recorded solubility (mole fraction) for Cl.N=C(N)N
Result: 0.185

====

Run Conditions: in DMF, 323.15 K
Measured Property: solubility (mole fraction)
Numbers only.

Q: Read off the recorded solubility (mole fraction) for Cl.N=C(N)N
Result: 0.495

====

Run Conditions: in 2-butoxyethanol, 323.15 K
Measured Property: solubility (mole fraction)

Q: Read off the recorded solubility (mole fraction) for Cl.N=C(N)N
Result: 0.236
